Data origin, for the record: ChEMBL document CHEMBL1681644

Parameter Ki, tested on Epidermal growth factor receptor (Homo sapiens), listed per item.
Sequence (P00533 whole entry): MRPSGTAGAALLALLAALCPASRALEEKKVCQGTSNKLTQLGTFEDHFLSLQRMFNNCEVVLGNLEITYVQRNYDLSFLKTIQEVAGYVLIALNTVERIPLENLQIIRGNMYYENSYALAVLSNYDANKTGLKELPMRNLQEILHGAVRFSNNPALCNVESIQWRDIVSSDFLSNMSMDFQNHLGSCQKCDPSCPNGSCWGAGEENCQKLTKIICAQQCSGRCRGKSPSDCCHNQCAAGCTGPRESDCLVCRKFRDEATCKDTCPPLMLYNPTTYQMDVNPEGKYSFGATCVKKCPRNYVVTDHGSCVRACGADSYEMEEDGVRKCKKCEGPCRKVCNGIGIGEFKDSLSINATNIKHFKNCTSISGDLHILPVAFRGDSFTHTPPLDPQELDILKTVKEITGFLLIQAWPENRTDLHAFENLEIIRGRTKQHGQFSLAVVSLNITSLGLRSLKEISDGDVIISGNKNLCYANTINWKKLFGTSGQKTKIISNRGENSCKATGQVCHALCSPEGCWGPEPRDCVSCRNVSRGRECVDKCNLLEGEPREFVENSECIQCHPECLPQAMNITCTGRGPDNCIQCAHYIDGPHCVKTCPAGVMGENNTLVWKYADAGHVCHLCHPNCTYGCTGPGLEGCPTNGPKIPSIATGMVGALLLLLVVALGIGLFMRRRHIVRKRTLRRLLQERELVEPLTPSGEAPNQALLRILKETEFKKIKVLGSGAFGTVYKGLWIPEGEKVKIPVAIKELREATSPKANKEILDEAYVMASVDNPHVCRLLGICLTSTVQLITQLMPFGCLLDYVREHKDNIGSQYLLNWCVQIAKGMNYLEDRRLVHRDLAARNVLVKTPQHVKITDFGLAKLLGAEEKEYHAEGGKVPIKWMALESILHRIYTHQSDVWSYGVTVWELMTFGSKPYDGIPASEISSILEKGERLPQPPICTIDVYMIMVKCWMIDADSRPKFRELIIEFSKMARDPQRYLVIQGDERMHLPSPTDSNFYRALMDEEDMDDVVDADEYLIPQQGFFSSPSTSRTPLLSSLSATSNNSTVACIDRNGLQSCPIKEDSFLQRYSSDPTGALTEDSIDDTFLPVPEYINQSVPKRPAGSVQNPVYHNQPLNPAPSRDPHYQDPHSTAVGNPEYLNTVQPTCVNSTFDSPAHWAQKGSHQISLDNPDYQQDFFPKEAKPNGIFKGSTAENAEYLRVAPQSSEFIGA
Measured metric: Ki

[
  {
    "Chemical string": "c1cc2[nH]ncc2cc1-n1cc(CC2CCCCC2)nn1",
    "Measured metric": "Ki",
    "Observed measurement": "> 1800 nM"
  },
  {
    "Chemical string": "c1cc2[nH]ncc2cc1-n1cc(C2CC2)nn1",
    "Measured metric": "Ki",
    "Observed measurement": "> 1800 nM"
  },
  {
    "Chemical string": "COCc1cn(-c2ccc3[nH]ncc3c2)nn1",
    "Measured metric": "Ki",
    "Observed measurement": "> 1800 nM"
  }
]

###

Parameter Ki, tested on Glycogen synthase kinase-3 beta (Homo sapiens, UniProt P49841), listed per item.
Sequence (P49841 whole entry): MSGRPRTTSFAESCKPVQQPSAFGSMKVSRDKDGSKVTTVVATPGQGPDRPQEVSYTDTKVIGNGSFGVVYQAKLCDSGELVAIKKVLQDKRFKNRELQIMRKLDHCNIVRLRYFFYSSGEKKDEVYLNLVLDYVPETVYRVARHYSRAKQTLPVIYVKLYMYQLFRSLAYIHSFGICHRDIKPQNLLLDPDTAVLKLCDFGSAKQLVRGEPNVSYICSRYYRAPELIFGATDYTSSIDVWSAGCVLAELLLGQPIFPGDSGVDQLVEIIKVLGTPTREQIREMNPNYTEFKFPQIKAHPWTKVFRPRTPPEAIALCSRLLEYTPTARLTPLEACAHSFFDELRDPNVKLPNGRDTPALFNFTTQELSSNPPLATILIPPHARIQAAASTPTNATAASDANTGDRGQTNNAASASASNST
Measured metric: Ki (nM)

[
  {
    "Chemical string": "c1cc2[nH]ncc2cc1-n1cc(C2CC2)nn1",
    "Measured metric": "Ki",
    "Limit operator": "=",
    "Observed measurement": 3470
  },
  {
    "Chemical string": "Cc1cccc(Cn2cc(-c3ccc4[nH]ncc4c3)nn2)c1",
    "Measured metric": "Ki",
    "Limit operator": "=",
    "Observed measurement": 70
  },
  {
    "Chemical string": "c1ccc(Cc2cn(-c3ccc4[nH]ncc4c3)nn2)cc1",
    "Measured metric": "Ki",
    "Limit operator": "=",
    "Observed measurement": 542
  },
  {
    "Chemical string": "CCCc1cc(-c2ccc3[nH]ncc3c2)on1",
    "Measured metric": "Ki",
    "Limit operator": "=",
    "Observed measurement": 2530
  },
  {
    "Chemical string": "CNC(=O)c1cc(-c2ccc3[nH]ncc3c2)on1",
    "Measured metric": "Ki",
    "Limit operator": "=",
    "Observed measurement": 4270
  },
  {
    "Chemical string": "Fc1ccccc1Cn1cc(-c2ccc3[nH]ncc3c2)nn1",
    "Measured metric": "Ki",
    "Limit operator": "=",
    "Observed measurement": 91
  },
  {
    "Chemical string": "Clc1ccc(Cn2cc(-c3ccc4[nH]ncc4c3)nn2)cc1",
    "Measured metric": "Ki",
    "Limit operator": "=",
    "Observed measurement": 197
  },
  {
    "Chemical string": "Clc1ccc(Cl)c(Cn2cc(-c3ccc4[nH]ncc4c3)nn2)c1",
    "Measured metric": "Ki",
    "Limit operator": "=",
    "Observed measurement": 16
  },
  {
    "Chemical string": "c1cc2[nH]ncc2cc1-n1cc(C2CCCC2)nn1",
    "Measured metric": "Ki",
    "Limit operator": "=",
    "Observed measurement": 1300
  },
  {
    "Chemical string": "CCCc1cn(-c2ccc3[nH]ncc3c2)nn1",
    "Measured metric": "Ki",
    "Limit operator": "=",
    "Observed measurement": 2030
  },
  {
    "Chemical string": "OCCCc1cn(-c2ccc3[nH]ncc3c2)nn1",
    "Measured metric": "Ki",
    "Limit operator": "=",
    "Observed measurement": 5220
  },
  {
    "Chemical string": "COCc1cn(-c2ccc3[nH]ncc3c2)nn1",
    "Measured metric": "Ki",
    "Limit operator": ">",
    "Observed measurement": 5450
  },
  {
    "Chemical string": "c1cc2n[nH]cc2cc1-c1c[nH]nn1",
    "Measured metric": "Ki",
    "Limit operator": "=",
    "Observed measurement": 448
  }
]

###

- Study system: Serine/threonine-protein kinase pim-1 (Homo sapiens)
- Sequence (P11309 whole entry): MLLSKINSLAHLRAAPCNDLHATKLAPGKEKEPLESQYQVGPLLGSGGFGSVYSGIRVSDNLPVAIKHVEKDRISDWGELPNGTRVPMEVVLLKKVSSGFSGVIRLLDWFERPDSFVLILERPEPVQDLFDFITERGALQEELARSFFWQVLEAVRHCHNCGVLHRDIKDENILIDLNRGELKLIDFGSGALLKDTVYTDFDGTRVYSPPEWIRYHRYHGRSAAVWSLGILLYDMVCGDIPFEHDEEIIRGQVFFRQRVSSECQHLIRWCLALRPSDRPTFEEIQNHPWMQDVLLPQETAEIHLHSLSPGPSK
pKi: −log10 of the molar value.
Measured metric: pKi

[
  {
    "Chemical string": "Fc1ccc(Cn2cc(-c3ccc4[nH]ncc4c3)nn2)cc1",
    "Study system": "Serine/threonine-protein kinase pim-1 (Homo sapiens)",
    "Limit operator": "=",
    "Observed measurement": 3.78
  },
  {
    "Chemical string": "Clc1cccc(Cn2cc(-c3ccc4[nH]ncc4c3)nn2)c1Cl",
    "Study system": "Serine/threonine-protein kinase pim-1 (Homo sapiens)",
    "Limit operator": "=",
    "Observed measurement": 4.69
  },
  {
    "Chemical string": "COCc1cn(-c2ccc3[nH]ncc3c2)nn1",
    "Study system": "Serine/threonine-protein kinase pim-1 (Homo sapiens)",
    "Limit operator": "<",
    "Observed measurement": 5.07
  },
  {
    "Chemical string": "Clc1ccc(Cl)c(Cn2cc(-c3ccc4[nH]ncc4c3)nn2)c1",
    "Study system": "Serine/threonine-protein kinase pim-1 (Homo sapiens)",
    "Limit operator": "=",
    "Observed measurement": 4.44
  },
  {
    "Chemical string": "c1cc2n[nH]cc2cc1-c1c[nH]nn1",
    "Study system": "Serine/threonine-protein kinase pim-1 (Homo sapiens)",
    "Limit operator": "=",
    "Observed measurement": 5.65
  },
  {
    "Chemical string": "Clc1ccccc1Cn1cc(-c2ccc3[nH]ncc3c2)nn1",
    "Study system": "Serine/threonine-protein kinase pim-1 (Homo sapiens)",
    "Limit operator": "=",
    "Observed measurement": 5.38
  },
  {
    "Chemical string": "c1cc2[nH]ncc2cc1-n1cc(CC2CCCCC2)nn1",
    "Study system": "Serine/threonine-protein kinase pim-1 (Homo sapiens)",
    "Limit operator": "<",
    "Observed measurement": 5.07
  },
  {
    "Chemical string": "OCCCc1cn(-c2ccc3[nH]ncc3c2)nn1",
    "Study system": "Serine/threonine-protein kinase pim-1 (Homo sapiens)",
    "Limit operator": "<",
    "Observed measurement": 5.07
  },
  {
    "Chemical string": "c1ccc(CCc2cn(-c3ccc4[nH]ncc4c3)nn2)cc1",
    "Study system": "Serine/threonine-protein kinase pim-1 (Homo sapiens)",
    "Limit operator": "<",
    "Observed measurement": 5.07
  }
]

###

Parameter pKi, tested on Serine/threonine-protein kinase PAK 4 (Homo sapiens), listed per item.
Sequence (O96013 whole entry): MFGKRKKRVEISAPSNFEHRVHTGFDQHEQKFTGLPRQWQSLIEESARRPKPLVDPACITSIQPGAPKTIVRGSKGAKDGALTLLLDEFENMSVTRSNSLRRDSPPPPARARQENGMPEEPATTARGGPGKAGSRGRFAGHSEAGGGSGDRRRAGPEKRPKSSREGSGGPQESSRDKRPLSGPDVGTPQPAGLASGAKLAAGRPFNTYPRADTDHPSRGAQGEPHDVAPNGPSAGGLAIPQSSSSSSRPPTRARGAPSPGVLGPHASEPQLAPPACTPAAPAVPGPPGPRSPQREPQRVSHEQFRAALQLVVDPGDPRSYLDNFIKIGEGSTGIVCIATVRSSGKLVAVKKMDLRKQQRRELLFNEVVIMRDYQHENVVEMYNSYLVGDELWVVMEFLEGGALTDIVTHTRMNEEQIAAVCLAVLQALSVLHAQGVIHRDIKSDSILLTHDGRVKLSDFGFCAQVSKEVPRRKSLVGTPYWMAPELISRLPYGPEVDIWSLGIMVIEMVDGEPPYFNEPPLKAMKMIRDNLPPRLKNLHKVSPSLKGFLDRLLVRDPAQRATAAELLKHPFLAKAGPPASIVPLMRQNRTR
pKi: −log10 of the molar value.

[
  {
    "Chemical string": "CCCc1cn(-c2ccc3[nH]ncc3c2)nn1",
    "pKi": "< 5.43"
  },
  {
    "Chemical string": "c1cc2[nH]ncc2cc1-n1cc(C2CCCC2)nn1",
    "pKi": "< 5.43"
  },
  {
    "Chemical string": "CNC(=O)c1cc(-c2ccc3[nH]ncc3c2)on1",
    "pKi": "< 5.43"
  },
  {
    "Chemical string": "c1ccc(CCCc2cn(-c3ccc4[nH]ncc4c3)nn2)cc1",
    "pKi": "< 5.43"
  },
  {
    "Chemical string": "Fc1ccccc1Cn1cc(-c2ccc3[nH]ncc3c2)nn1",
    "pKi": 4.88
  },
  {
    "Chemical string": "COCc1cn(-c2ccc3[nH]ncc3c2)nn1",
    "pKi": "< 5.43"
  }
]

###

pKi: −log10 of the molar value.
Parameter pKi, tested on Rho-associated protein kinase 2 (Homo sapiens, UniProt O75116), listed per item.
Sequence (O75116 whole entry): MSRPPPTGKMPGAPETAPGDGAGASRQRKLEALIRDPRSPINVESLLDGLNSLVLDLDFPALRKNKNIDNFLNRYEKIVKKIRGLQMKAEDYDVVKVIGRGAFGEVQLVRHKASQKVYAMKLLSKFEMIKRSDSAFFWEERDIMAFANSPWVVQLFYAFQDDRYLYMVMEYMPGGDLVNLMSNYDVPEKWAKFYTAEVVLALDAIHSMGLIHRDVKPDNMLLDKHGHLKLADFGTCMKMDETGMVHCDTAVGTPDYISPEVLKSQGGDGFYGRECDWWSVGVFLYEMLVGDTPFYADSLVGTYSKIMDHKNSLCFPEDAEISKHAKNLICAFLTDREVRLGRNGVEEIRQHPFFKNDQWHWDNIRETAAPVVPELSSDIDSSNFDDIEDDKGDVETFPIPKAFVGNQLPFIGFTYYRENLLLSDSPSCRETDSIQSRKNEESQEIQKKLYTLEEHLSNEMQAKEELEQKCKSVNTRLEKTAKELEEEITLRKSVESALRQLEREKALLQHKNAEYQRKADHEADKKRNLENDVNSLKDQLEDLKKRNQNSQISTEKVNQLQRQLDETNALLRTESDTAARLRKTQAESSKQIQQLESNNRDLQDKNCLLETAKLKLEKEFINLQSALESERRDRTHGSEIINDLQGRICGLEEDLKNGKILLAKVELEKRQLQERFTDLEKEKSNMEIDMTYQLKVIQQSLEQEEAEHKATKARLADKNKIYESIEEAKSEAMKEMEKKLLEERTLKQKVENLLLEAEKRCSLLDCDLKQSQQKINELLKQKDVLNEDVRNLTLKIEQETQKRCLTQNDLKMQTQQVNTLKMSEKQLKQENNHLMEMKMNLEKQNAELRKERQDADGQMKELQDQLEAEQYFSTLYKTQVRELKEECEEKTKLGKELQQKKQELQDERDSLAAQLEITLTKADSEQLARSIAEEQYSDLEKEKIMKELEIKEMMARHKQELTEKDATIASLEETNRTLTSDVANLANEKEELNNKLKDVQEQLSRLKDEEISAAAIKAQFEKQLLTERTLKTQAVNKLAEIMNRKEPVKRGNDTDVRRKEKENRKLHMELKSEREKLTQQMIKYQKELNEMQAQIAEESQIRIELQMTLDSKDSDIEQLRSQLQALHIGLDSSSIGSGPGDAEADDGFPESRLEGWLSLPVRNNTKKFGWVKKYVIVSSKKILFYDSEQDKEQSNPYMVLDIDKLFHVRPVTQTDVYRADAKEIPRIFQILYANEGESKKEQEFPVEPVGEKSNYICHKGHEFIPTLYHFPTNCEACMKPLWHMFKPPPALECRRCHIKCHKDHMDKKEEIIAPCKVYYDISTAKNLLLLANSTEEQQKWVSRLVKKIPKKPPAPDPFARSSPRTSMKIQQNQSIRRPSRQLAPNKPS

[
  {
    "Chemical string": "c1cc2[nH]ncc2cc1-n1cc(CC2CCCCC2)nn1",
    "pKi": 7.00
  },
  {
    "Chemical string": "Nc1n[nH]c2ccc(-c3cc(Cc4ccccc4)no3)cc12",
    "pKi": 7.80
  },
  {
    "Chemical string": "Clc1cccc(Cn2cc(-c3ccc4[nH]ncc4c3)nn2)c1",
    "pKi": 7.41
  },
  {
    "Chemical string": "Clc1cccc(Cn2cc(-c3ccc4[nH]ncc4c3)nn2)c1Cl",
    "pKi": 7.82
  },
  {
    "Chemical string": "Fc1cccc(Cn2cc(-c3ccc4[nH]ncc4c3)nn2)c1",
    "pKi": 6.74
  },
  {
    "Chemical string": "Clc1ccccc1Cn1cc(-c2ccc3[nH]ncc3c2)nn1",
    "pKi": 7.01
  },
  {
    "Chemical string": "Clc1ccc(Cn2cc(-c3ccc4[nH]ncc4c3)nn2)cc1",
    "pKi": 7.17
  },
  {
    "Chemical string": "CCCc1cn(-c2ccc3[nH]ncc3c2)nn1",
    "pKi": 6.97
  },
  {
    "Chemical string": "Fc1ccc(Cn2cc(-c3ccc4[nH]ncc4c3)nn2)cc1",
    "pKi": 6.55
  },
  {
    "Chemical string": "c1cc2n[nH]cc2cc1-c1c[nH]nn1",
    "pKi": 6.68
  },
  {
    "Chemical string": "Cc1cccc(Cn2cc(-c3ccc4[nH]ncc4c3)nn2)c1",
    "pKi": 6.43
  },
  {
    "Chemical string": "Clc1cc(Cl)cc(Cn2cc(-c3ccc4[nH]ncc4c3)nn2)c1",
    "pKi": 7.39
  }
]
